assayMethodText: antimalarial activity against Dd2 strain (AID 2302);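 also: 0% = DMSO untreated growth and 100% = chloroquine plus artemisinin killed control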
conditionInfo: P. falciparum Dd2 in RBCs, LDH growth readout, 72 h; at 2 µM; active compounds read high
growth inhibition: recorded values
Please reply with the bare figure in % and do not write the unit itself.

Solved cases (4 shown):
O=C(Nc1cccc(C(F)(F)F)c1)NC1CCN(c2ccnc3cc(Cl)ccc23)CC1 | 47
CN=C(Nc1c(Cl)cccc1Cl)N(C)C | 1
Cc1cc(NN=Cc2ccc(F)cc2)c2ccc(C(F)(F)F)cc2n1 | 24
COc1cc(-n2cnc3cc(-c4ccc([N+](=O)[O-])cc4)sc3c2=O)ccc1OCCN1CCCC1 | 79

--- query ---
Dear colleague, I am looking for the recorded growth inhibition of the following compound: COc1ccc(NC2=C(c3ccccc3)C(=O)c3ccccc32)cn1
84

* * *

experimentalTarget: Plasmodium falciparum protein kinase 6 (PK6, PF3D7_1337100) (UniProt Q8IDW1)
assayMethodText: PfPK6 kinase inhibitors, biochemical, TCAMS library (AID 1159586)
conditionInfo: recombinant PfPK6, Kinase-Glo ATP depletion luminescence
Entries with a potency or affinity are not part of this list. The source made the active and inactive calls. How the calls were made is not given here.
readoutType: outcome

Below, 6 molecules whose answers are already recorded.
COc1ccccc1C1CN(CCNC(=O)c2ncc(C)[nH]2)Cc2ccccc2O1 (stereo not given) | inactive
COc1cc(OC)cc(-c2nn(-c3ccc([N+](=O)[O-])cc3C#N)c(=S)n2Cc2ccco2)c1 | inactive
CC[C@H](C)CNC(=O)c1cncc(-c2cccc(CN(C)C3CCN(C)CC3)c2)c1 | inactive
N#Cc1cccc(COC(=O)C2=C(COc3ccccc3Cl)NC(=O)NC2c2c[nH]c3cnccc23)c1 (stereo not given) | inactive
COc1ccc(-c2cn3c(C(=O)Nc4ccccc4Cl)c(-c4ccccc4)c4c3n2CCCC4)cc1 | inactive
O=[N+]([O-])c1cccc(NC(=S)N2CCCN(Cc3ccc(C(F)(F)F)cc3)CC2)c1 | inactive

Give the measured outcome of CCN1CCN(c2cc(C)c3cc(NC(=O)c4cccc(C(F)(F)F)c4)ccc3n2)CC1 .
inactive

And what about the molecule CC(C)(C)c1ccc(NC(=O)c2cccc(CN3CCCN(CC4CCCCC4)CC3)c2)cc1 ?
inactive

Now consider O=C(Nc1cccc(C(F)(F)F)c1)N1CCOC(CCN2CCC(c3ccccc3)CC2)(c2ccc(Cl)c(Cl)c2)C1 (stereo not given) and answer again.
inactive

Also, CCN(CCCN1CCCCC1)c1nc(C)cc(Nc2ccc(Cl)cc2)n1 please.
inactive

Could you do the same for CCCN(CCC)C(=O)c1cc(C(=O)N[C@@H](Cc2ccccc2)[C@H](O)CNC(C)(C)c2cccc(OC)c2)cc(N2CCCCS2(=O)=O)c1 , please?
inactive

Entry to check: Clc1ccc(OCc2ccccc2)c(-c2nc(-c3nc4ncc(Br)cc4[nH]3)cs2)c1
inactive

Another molecule to check: CC(C)N(CC(=O)c1ccc(O)c(C(=O)O)c1)Cc1ccccc1
inactive

* * *

experimentalTarget: Protein kinase 7 (PK7), Plasmodium falciparum 3D7 (PF3D7_0213400)
assayMethodText: inhibition of Plasmodium PK7 catalytic activity – biochemical, TCAMS antimalarial set, Kinase-Glo luminescence (AID 1159587)
conditionInfo: recombinant PfPK7, Kinase-Glo ATP depletion luminescence
Active and inactive are the calls of the source. No rule for the calls is given here.
readoutType: outcome

// known answers, use as guide
Clc1ccccc1CCNCC1CCN(CC2CCCCC2)CC1 | inactive
CCn1c(CN2CCC(C)CC2)nc2cc(NC(=O)c3cccs3)ccc21 | inactive
Cc1cccc(C(=O)N2CCN(Cc3cccc(NC(=O)c4ccco4)c3)CC2)c1 | inactive
Cc1cc(O)c2c(c1)OC(C)(C)C=C2C1=CCN(Cc2ccccc2)CC1 | inactive
Cc1cc(NC(=O)Nc2ccc(C(C)C)cc2)c2ccccc2n1 | inactive
c1ccc(CNCc2ccc(-c3cccc(-c4nc5ccccc5[nH]4)c3)cc2)cc1 | inactive
O=c1ccccn1CCCC1CCCCN1 (stereo unspecified) | inactive
O=C(CCCCCNC(=O)c1ccc(O)c(-c2ccc(Cl)c(Cl)c2)c1)NCCN1CCCC1 | inactive

Name the reported outcome value associated with the molecule Cc1ccccc1OCCCN1CCN(CC(c2ccc(F)cc2)N2CCN(C(C)C)CC2)CC1 (stereo unspecified)
inactive

And for Cc1ccc(NC(=O)c2ccc3nccnc3c2)cc1OC1CCN(Cc2ccc(F)cc2)CC1 ?
inactive

Let us now turn to Cc1[nH]c(C)c(C(F)(F)F)c(=O)c1-c1ccc(Oc2ccc(OC(F)(F)F)cc2)cc1
inactive

Also O=C(Nc1cccc(CN2CCN(Cc3cccc(O)c3)CC2)c1)c1cc2ccccc2s1 ?
inactive

How about this molecule: Cc1cccc2[nH]c(-c3ccc(-c4cccc(NCc5cn6cccnc6n5)c4)cc3)nc12
inactive

Entry CC(C)C[C@@H](C(=O)Nc1ccc(Cc2ccc(NC(=O)[C@H](CC(C)C)N(C)C(=O)OC(C)(C)C)cc2)cc1)N(C)C(=O)OC(C)(C)C please
inactive

And CN(C)c1ccc(N2C(N)=NC(N)=NC23CCCC3)cc1 ?
inactive

* * *

assayMethodText: antimalarial activity against Dd2 strain (AID 2302);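 also: 0% = DMSO untreated growth and 100% = chloroquine plus artemisinin killed control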
conditionInfo: P. falciparum Dd2 in RBCs, LDH growth readout, 72 h; at 2 µM; active compounds read high
Entry flag: 1 if growth inhibition reaches 60%; -1 if it does not.

Here are 3 molecules together with their reported answers.
CCCc1cnc2nc(N)nc(N)c2c1C | -1
Cc1cccc2[nH]c(-c3cccc(-c4cccc(NC(=O)C5CC(=O)Nc6ccccc65)c4)c3)nc12 (stereo not given) | -1
COc1ccccc1CNc1ccnc(N2CC(Oc3ccc(F)cc3)C2)n1 | 1

Quick check: does CCOC(=O)c1ccc(OCc2ccc(-c3ccccc3)cc2)cc1 have growth inhibition greater than or equal to 60%?
-1

Try this molecule too: Cc1ccc(CN2CCCN(Cc3cccc(NC(=O)c4cc5ccccc5s4)c3)CC2)cc1
-1

Next molecule up: CN1CCC(NCc2ccc(S(=O)(=O)Nc3ccc(Oc4cccc(Cl)c4)cc3)cc2)CC1
-1

Repeat for the following molecule: NC(N)=NN=Cc1c2ccccc2c(Cl)c2ccc(Cl)cc12
1

How about O=C(/C=C/c1ccccc1Cl)Nc1ccc(Br)c(OCCN2CCC(O)(c3ccccc3)CC2)c1 ?
1

Same question for O=C(Nc1cccc(-c2cc3ccccc3[nH]2)c1)C1CCN(Cc2ccccc2O)CC1 please.
-1

* * *

assayMethodText: antimalarial activity against Dd2 strain (AID 2302);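 also: 0% = DMSO untreated growth and 100% = chloroquine plus artemisinin killed control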
conditionInfo: P. falciparum Dd2 in RBCs, LDH growth readout, 72 h; at 2 µM; active compounds read high
Here the recorded growth inhibition is given for each entry.
Kindly provide the numeric value in % only, without the unit symbol.

CCCCCCC(C)c1cc(O)c2c(c1)OC(C)(C)C=C2c1ccncc1 (stereo not given) | 29
c1ccc(OCCOc2ccc(Nc3ccnc4cc5ccccc5cc34)cc2)cc1 | 96
O=C(/C=C/c1ccc(C(F)(F)F)cc1)NCCCCCN1CCCN(C(=O)Nc2ccc(Cl)c(Cl)c2)CC1 | 17
CN(c1ccc(C(=O)N[C@@H](CCC(=O)O)C(=O)O)cc1)S(=O)(=O)c1ccc2nc(N)[nH]c(=O)c2c1 | 3
CSc1sc(NC(=O)Nc2cccc(C(F)(F)F)c2)cc1C#N | 46
Cc1ccc(C(=O)Nc2ccc(C)c(OC3CCN(Cc4ccco4)C3)c2)cc1 (stereo not given) | 49
CN(C)CCC1CCCc2ccc(NC(=O)Nc3cccc(Cl)c3Cl)cc21 (stereo not given) | 11
O=c1cc(NCCCNCc2sc(Br)c(Br)c2Br)[nH]c2ccccc12 | 38
COc1ccccc1-c1cccc(-c2cccc(NC(=O)c3ccc([N+](=O)[O-])o3)c2)n1 | 59
C=C1N(C)c2cc([N+](=O)[O-])c(N)cc2C1(C)C | 83

So what does the record say about growth inhibition for COc1ccc(NC(=O)/C=C/c2ccccc2Cl)cc1OCCN1CCC(N2CCCC2)CC1 ?
23

* * *

# growth inhibition per record follows
assayMethodText: antimalarial activity against Dd2 strain (AID 2302);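 also: 0% = DMSO untreated growth and 100% = chloroquine plus artemisinin killed control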
conditionInfo: P. falciparum Dd2 in RBCs, LDH growth readout, 72 h; at 2 µM; active compounds read high
# unit: % | format: bare number

Worked cases, answers included:
O=C(NCCCCCN1CCC(c2c[nH]c3ccccc23)C1)Nc1ccc(Cl)c(Cl)c1 (stereo not given) | 19
COc1cc2nc(N3CCC(CNC(=O)c4cc(Br)c(Br)s4)CC3)nc(N)c2cc1OC | 97
COc1ccc(CCNc2nc(SCc3ccccc3Cl)nc3ccccc23)cc1OC | 2

Which growth inhibition reading was recorded for the molecule O=C(Nc1cccc(-c2ccc(-c3nc4ccc(C(F)(F)F)cc4[nH]3)cc2)c1)c1cccnc1 ?
97

Please answer likewise for Oc1ccc2nc(NCCCc3ccccc3)nc(NCCc3ccccc3)c2c1
88

Now consider CNC(=O)c1cnc(Nc2ccc(OCC(O)CN(C)C)cc2)nc1Nc1cccc(OC)c1 (stereo not given) .
97

// query: Cn1nccc1C(=O)NCCNCc1ccc(-c2cccc(-c3nc4ccccc4[nH]3)c2)cc1
87

Try the molecule C[C@@H](CC1CCCCC1)OC(=O)N(C)[C@H]1CCN(C#N)C1
62

Query Cc1ccc(NC(=O)c2cccc(CN3CCCN(Cc4cccc(O)c4)CC3)c2)cc1 next
3

What do you get for CC1(C)N=C(N)N=C(N)N1OCCCCCOc1ccccc1 ?
97

Source: PubChem BioAssay
